Molecular target: human VEGF receptor (KDR) (Homo sapiens)
Sequence (P35968 20-1356): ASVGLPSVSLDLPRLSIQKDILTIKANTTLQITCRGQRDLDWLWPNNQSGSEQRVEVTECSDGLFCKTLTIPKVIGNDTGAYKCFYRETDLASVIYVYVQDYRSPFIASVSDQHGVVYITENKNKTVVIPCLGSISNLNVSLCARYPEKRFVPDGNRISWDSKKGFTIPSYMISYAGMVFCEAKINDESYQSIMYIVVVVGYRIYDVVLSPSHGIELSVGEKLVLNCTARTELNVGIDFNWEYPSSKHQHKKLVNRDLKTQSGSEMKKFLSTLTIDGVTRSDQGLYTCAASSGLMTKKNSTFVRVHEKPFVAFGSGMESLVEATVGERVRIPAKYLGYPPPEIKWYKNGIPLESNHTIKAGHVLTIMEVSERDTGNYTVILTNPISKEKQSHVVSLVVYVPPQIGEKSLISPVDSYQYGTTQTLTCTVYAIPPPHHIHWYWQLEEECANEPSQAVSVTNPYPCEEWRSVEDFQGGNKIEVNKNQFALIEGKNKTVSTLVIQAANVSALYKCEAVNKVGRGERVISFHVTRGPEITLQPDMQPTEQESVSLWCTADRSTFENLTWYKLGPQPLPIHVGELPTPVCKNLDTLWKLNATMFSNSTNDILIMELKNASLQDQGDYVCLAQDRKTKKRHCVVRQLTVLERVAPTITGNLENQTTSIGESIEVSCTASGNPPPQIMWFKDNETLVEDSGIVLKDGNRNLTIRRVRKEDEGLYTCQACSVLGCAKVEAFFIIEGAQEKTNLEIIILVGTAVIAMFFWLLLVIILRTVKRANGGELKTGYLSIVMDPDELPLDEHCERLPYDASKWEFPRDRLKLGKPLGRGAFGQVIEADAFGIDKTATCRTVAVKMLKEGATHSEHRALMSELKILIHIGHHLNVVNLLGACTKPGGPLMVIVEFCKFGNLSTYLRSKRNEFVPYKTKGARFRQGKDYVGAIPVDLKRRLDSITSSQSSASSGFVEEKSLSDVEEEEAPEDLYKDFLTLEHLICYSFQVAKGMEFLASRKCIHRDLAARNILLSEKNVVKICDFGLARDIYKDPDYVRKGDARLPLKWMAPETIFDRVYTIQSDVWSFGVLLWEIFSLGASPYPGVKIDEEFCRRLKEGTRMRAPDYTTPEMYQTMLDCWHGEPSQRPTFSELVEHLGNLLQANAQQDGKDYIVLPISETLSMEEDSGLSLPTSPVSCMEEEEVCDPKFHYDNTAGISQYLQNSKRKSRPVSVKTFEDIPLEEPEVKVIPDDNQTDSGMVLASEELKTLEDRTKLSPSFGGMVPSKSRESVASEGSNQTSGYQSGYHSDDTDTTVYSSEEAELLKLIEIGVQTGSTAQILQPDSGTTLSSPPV
Test: Test for activity against VEGF-induced KDR phosphorylation (transfected CHO cells, sandwich ELISA)
Conditions: 2 h compound, then VEGF 20 ng/ml for 5 min, % inhibition of VEGF-induced KDR phosphorylation, read-out: ED50 (the source's name)
Binary call on IC50 with cut-off 30 nM: strictly below means Y, and equality or higher means N.

Recorded results for 5 compounds are shown here.
{"columns": ["compound", "group_label"],
 "data": [
  ["CC(C)(C)c1ccc(Nc2ncc(Cc3ccc(O)nc3)c3ncccc23)cc1 [Example 41e]", "Y"],
  ["CC(C)(C)c1ccc(Nc2ncc(Cc3ccc(O)nc3)c3ccccc23)cc1 [Example 34e]", "Y"],
  ["CCc1ccc(Nc2ncc(CCc3cccnc3)c3ccccc23)cc1Br", "N"],
  ["CC(C)(C)c1ccc(Nc2ncc(CCc3cccnc3)c3ccccc23)cc1", "Y"],
  ["COc1ccc(Cc2cnc(Nc3ccc(C(C)(C)C)cc3)c3cccnc23)cn1 [Example 40e]", "N"]
]}

For Cc1cc(Nc2ncc(CCc3cccnc3)c3ccccc23)ccc1C(C)C , is the recorded IC50 below the cut-off of 30 nM?
Y

For COc1ccc(Cc2cnc(Nc3ccc(C(C)(C)C)cc3)c3ccccc23)cn1 [Example 33e] , is the recorded IC50 below the cut-off of 30 nM?
Y

For CCc1ccc(Nc2ncc(Cc3ccc(O)nc3)c3ccccc23)cc1Br [Example 34g] , is the recorded IC50 below the cut-off of 30 nM?
Y

FYI, the data here is from patent US7323474B2.
